Assay: chemical genetic growth profiling, strain panel (AID 1159580);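 further: tested at 20 µM; growth read once vehicle control cultures reached saturation at 30 °C; 1 = growth at the plate median or of vehicle wells; lower values mean less growth of the strain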
Settings: S. cerevisiae deletion strains, growth OD, locus YJL154C, strain vps35, stronger effect = lower value
The whole screen tested about 5,500 compounds, of which about 2,000 (36%) were called active. About 18% were inconclusive and are not listed. The list shows a part of the results.
measured-attribute: normalized growth
// response body must contain only the number

Req: Need normalized growth, item C=C1C(=O)[C@]23[C@H](O)[C@H]1CC[C@H]2[C@@]12CO[C@]3(O)[C@H](O)[C@@H]1C(C)(C)CC[C@@H]2O
Resp: 1.01

Req: Need normalized growth, item Cc1cc(CC(=O)O)n(C)c1C(=O)c1ccc(Cl)cc1
Resp: 1.02

Req: Need normalized growth, item COC[C@]12CN(C=O)C3[C@@H]4[C@H](OC)C1[C@]3(C1CC3(O)C(OC)C(O)C4(OC(C)=O)C1C3OC(=O)c1ccccc1)[C@@H](OC)C[C@H]2O (stereo not given in full)
Resp: 1.01

Req: Need normalized growth, item CCCn1c(=O)c2[nH]c(C3CCCC3)nc2n(CCC)c1=O
Resp: 0.979

Req: Need normalized growth, item Cc1cccc(C)c1NC(=O)C1CCCCN1C (stereo not given)
Resp: 0.994
